For each of the compounds below, state its IC50.
Biological target: recombinant full-length human prolyl endopeptidase (PREP) (Homo sapiens)
Construct: To recombinant full-length human prolyl endopeptidase (PREP, R&D-Systems, 4308-SE)
Sequence (P48147 whole entry): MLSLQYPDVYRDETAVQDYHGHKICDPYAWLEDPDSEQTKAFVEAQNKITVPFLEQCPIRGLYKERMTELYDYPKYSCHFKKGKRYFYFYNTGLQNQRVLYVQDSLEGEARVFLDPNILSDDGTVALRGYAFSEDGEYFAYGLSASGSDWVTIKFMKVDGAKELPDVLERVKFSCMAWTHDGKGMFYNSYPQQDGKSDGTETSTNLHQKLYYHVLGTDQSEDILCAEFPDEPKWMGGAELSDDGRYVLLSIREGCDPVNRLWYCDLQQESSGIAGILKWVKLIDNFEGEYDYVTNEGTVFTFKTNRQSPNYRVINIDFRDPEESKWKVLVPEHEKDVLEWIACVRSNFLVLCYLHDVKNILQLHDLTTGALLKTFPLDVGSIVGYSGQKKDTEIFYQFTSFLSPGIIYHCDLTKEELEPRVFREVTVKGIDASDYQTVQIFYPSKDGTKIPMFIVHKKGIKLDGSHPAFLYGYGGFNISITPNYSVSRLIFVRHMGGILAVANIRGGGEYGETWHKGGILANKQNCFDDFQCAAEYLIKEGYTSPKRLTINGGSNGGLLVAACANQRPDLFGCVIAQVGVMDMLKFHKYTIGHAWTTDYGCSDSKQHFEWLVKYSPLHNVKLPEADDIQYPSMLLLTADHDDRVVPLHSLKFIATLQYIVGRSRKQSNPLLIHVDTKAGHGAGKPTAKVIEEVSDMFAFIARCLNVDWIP
Experiment: Biochemical human prolyl endopeptidase (PREP) assay with fluorescently labelled substrate
Conditions: substrate Z-Gly-Pro-AMC 50 μM, 32° C., 60 min; some as mean values from multiple independent determinations
Give bare numbers, in nM.

Record excerpt, results attached:
compound="Cc1ccc(Cn2nc3n(c2=O)C(C(=O)N2CCC4(C2)CC4(F)F)CCC3)cc1 (mixture of isomers) [Example 128]" unit_info=nM reported_measurement=46
compound=O=C([C@@H]1CCCc2nn(Cc3ccc(C(F)(F)F)nc3)c(=O)n21)N1CC(O)C1 unit_info=nM reported_measurement=53
compound="Cc1ccc(Cn2nc3n(c2=O)C(C(=O)N2CCC(F)(CO)C2)CCC3)cc1 (mixture of isomers)" unit_info=nM reported_measurement=70
compound=O=C([C@@H]1CCCc2nn(Cc3cc4cccnc4nc3C(F)(F)F)c(=O)n21)N1CC[C@H](F)C1 unit_info=nM reported_measurement=0.88

Please report IC50 for every entry that follows.
1. O=C([C@@H]1CCCc2nn(CC3CC3)c(=O)n21)N1C[C@@H](F)[C@@H](F)C1
2. O=C(C1CC(C(F)(F)F)Cc2nn(Cc3ccc(Cl)nc3)c(=O)n21)N1CC[C@H](F)C1 (mixture of isomers) [Example 241]
3. O=C(C1C(C(F)(F)F)CCc2nn(Cc3ncc(Cl)cc3F)c(=O)n21)N1C[C@@H](F)[C@@H](F)C1 (mixture of isomers) [Example 291]
4. O=C(C1CC(C(F)(F)F)Cc2nn(Cc3ccc(Cl)cn3)c(=O)n21)N1CCC(F)(F)C1 (racemic) [Example 566]
5. O=C([C@@H]1CCc2nn(Cc3cccc(C(F)(F)F)c3)c(=O)n21)N1CCCC1

Result:
1. 4.5
2. 5.8
3. 96.5
4. 4.1
5. 1.4

Please report IC50 for every entry that follows.
1. O=C([C@@H]1CCCc2nn(Cc3ccc(F)c(Cl)c3)c(=O)n21)N1CCC2CC21 (single isomer, unassigned) [Example 202]
2. Cc1ccc(C2(Cn3nc4n(c3=O)[C@H](C(=O)N3CC(O)C3)CCC4)CC2)cc1
3. O=C([C@@H]1CCCc2nn(Cc3nccc(C(F)(F)F)c3Cl)c(=O)n21)N1CC(F)C1
4. O=C([C@@H]1CCCc2nn(Cc3cc(C(F)(F)F)nc4ccccc34)c(=O)n21)N1CC(F)C1

Result:
1: 19; 2: 19; 3: 1.45; 4: 0.91

Please report IC50 for every entry that follows.
1. O=C([C@@H]1CCCc2nn(Cc3ccc(Cl)cn3)c(=O)n21)N1CCSC1
2. O=C([C@@H]1CCCc2nn(Cc3cc4cccnc4nc3C(F)(F)F)c(=O)n21)N1CC(F)C1

Result:
[1.4, 1.7]

Where these numbers come from: patent US10722501B2
